Molecular target: preformed metal-free Aβ42 aggregates (Homo sapiens)
Sequence (P05067 672-713): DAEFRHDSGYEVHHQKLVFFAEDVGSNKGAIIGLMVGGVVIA
Assay: Aβ42 disaggregation experiments
Format: biochemical
Conditions: preformed aggregates (24 h) then [flavonoid] 50 μM 24 h, pH 7.4
quantity_measured: MW distribution of Aβ42 species by gel/Western blot

O=c1c(O)c(-c2ccc(O)cc2)oc2cc(O)cc(O)c12 : did not impact
O=c1cc(-c2ccc(O)c(O)c2)oc2cc(O)cc(O)c12 : did not impact

###

Target: Zn(II)–Aβ42 (Homo sapiens)
Sequence (P05067 672-713): as above
Test: Aβ42 aggregation inhibition experiments
Assay type: biochemical
Conditions: Zn(II)–Aβ42, [flavonoid] 50 μM, 24 h
quantity_measured: morphology of Aβ42 aggregates by TEM

O=c1c(O)c(-c2ccc(O)c(O)c2)oc2cc(O)cc(O)c12 : thinner chopped fibrils
O=c1c(-c2ccc(O)c(O)c2)coc2cc(O)cc(O)c12 : thinner chopped fibrils
O=c1cc(-c2ccc(O)c(O)c2)oc2cc(O)cc(O)c12 : thinner chopped fibrils
